I'd be grateful if you could share measured apparent KD of MS2 coat protein for these entries.
System: MS2 coat protein
EXPERIMENT NOTES: apparent KD of MS2 coat protein; designed switch direction (-1 OFF switch, 1 ON switch): -1; higher = weaker reporter binding
MEASUREMENT SETUP: input ligand: FMN 200 uM
Respond with a number, then the unit of measure.

Give measured apparent KD of MS2 coat protein for every item shown.
1. CCUAGUUGGUAAGGAUAUCCUACAUUGUUCUGGCCCGGGCAUGCUACAUGAGGAUCACCCAUGUGGGAGAAGGUGCGUCAUCGC [Design 17] (Eterna round: R96, puzzle: Exclusion NG 2)
2. GCCCUCACAGUGAGGAUAUCUGAGCAUCCCGCUAAGGAGAAGGCACAUGAGGAUCACCCAUGUAAUUGGUUUAA [BmEX4 A.22] (Eterna round: R97, puzzle: Brourd's mod of Exclusion 4)
3. CAAGAAAAGAAAGGAUAUAGCGCGGAGCCGCAGCUAGAAGGUUCGGUGGGUAUCCUGUAACAUGAGGAUCACCCAUGUAAAGAG [Texelara] (Eterna round: R96, puzzle: Exclusion NG 1)
4. UCACGGGACUGAGGAUAUACAUCAACAAUGGUUGUAGAAGGCAGAAGGUUGAAUCAUAUACUAAACAUGAGGAUCACCCAUGUU [JR_ExcNG1_Sub031] (Eterna round: R96, puzzle: Exclusion NG 1)
5. UCCAGCAUACGGAGAUCCAACAUGAGGAUCACCCAUGUCUGGAAAGCUUUUUGCUUGUCUUAUCCUCCUCUGUGUGC [Design #6] (Eterna round: R97, puzzle: Sensor, turn-off variant 1)
6. CCUGCGGACAAAGGAUAUUGCGGUGGCCGGCUCGGCGUACCGAGCCUACAUGAGGAUCACCCAUGUAAGAAGGUUGUCGUUGGU [JL ViennaUCT Qudice mod] (Eterna round: R96, puzzle: Exclusion NG 2)

["0.0804 µM", "0.124 µM", "0.499 µM", "0.0164 µM", "0.0225 µM", "0.186 µM"]

Return reported apparent KD of MS2 coat protein values for all items listed beneath this line.
1. AUAUUAAUAGUAAGGAUAUGCGUGUAUGUAGUUAUGCAGAAGGUACAUGAGGAUCACCCAUGUAUUAAUGUGUG [LRO-BmodExc4-06-Oppy's Opus] (Eterna round: R97, puzzle: Brourd's mod of Exclusion 4)
2. ACAACUGUAGGAUAUACUUUCUGGGUAAGCCAUUAUACUGGACAUGAGGAUCACCCAUGUAGAAGGACAGAAAG [Eternabot (Original) Solution 36] (Eterna round: R97, puzzle: Exclusion 2)
3. GUCUCCAGAGGAUAUCUUUUACGCGACAUGAGGAUCACCCAUGUAGAGGAGAUUGUCAGGAGAGAAGGCUGGGACG [Eternabot (L1) Solution 56] (Eterna round: R97, puzzle: Exclusion 5)

0.0216 µM
0.0296 µM
0.0551 µM

----------
System: MS2 coat protein
EXPERIMENT NOTES: apparent KD of MS2 coat protein; designed switch direction (-1 OFF switch, 1 ON switch): -1; higher = weaker reporter binding
MEASUREMENT SETUP: Eterna round: R95; input ligand: FMN 200 uM
Record form. Attribute: apparent KD of MS2 coat protein. Fill in for each entry.
Answers are plain numbers, in nM.

Completed entries (count: 4):
AGAUGUAGAUACCGAUCCUACAUGAGGAUCACCCAUGUAGCAAGACGUGCACGCGAAGCUCGUCAGACUACCAGAAG [salish99_TOv1_r3_083] (puzzle: Sensor v3, turn-off variant 1) = 114
GGUUGGCGAGGAUAUACAUGAGGAUCACCCAUGUGAGAGAAAGAAGUGAGGAAGAAAAGUAGAAGGCGCUGACG [salish99_ex3_r3_005] (puzzle: Exclusion 3) = 542
AGUACUAUGCGAGCUGACUUGCGUAGUGCAGCAGGUGGAACAUGAGGAUCACCCAUGUCCUCAUUUGCUCGUCUUAA [Mat - Sensor v3 - Turn-off var 2 - D5] (puzzle: Sensor v3, turn-off variant 2) = 27.4
AGUGCUGGCGCGUCGGUGUUGGUACAAUAAGCUUGUGAAACAUGAGGAUCACCCAUGUCCUCAUAAGCUCGUCUUAU [salish99_TOv2_r2_084] (puzzle: Sensor v3, turn-off variant 2) = 17.6

Next, consider the following sequence.
Param item = AUACGUCAAGUCAGGAUAUAUACCGCGACUACGGCGUAGAAGGGACAUGAGGAUCACCCAUGUAAAAGGGCAAA [Ceerrilaza] (puzzle: Brourd's mod of Exclusion 4) ; retrieve measured apparent KD of MS2 coat protein. 37.7

----------
Assignment: determine reported apparent KD of K4 kissing-loop reporter for the given sequences.
System: K4 kissing-loop RNA reporter
EXPERIMENT NOTES: apparent KD of K4 kissing-loop reporter; higher = weaker reporter binding
MEASUREMENT SETUP: Eterna round: R107; input ligand: tryptophan 2.4 mM
Answers are plain numbers, in nM.

Some solved cases for reference:
AAGUGGGAACGGCCCAAUAAAGUGUUUGUCAAGGAUAUUAUUCACAUAAGAAGGUGACAGACCACCUCCGGAGUGAUGUUUUGGA [theeternabot_sameState_KL_FMN_A_42] = 539
GCCUACGAUGCAGGAUAUAGCUCGCGAGUGAUGUUCGCAGCUGUAUGGUAGUAAGCUUCCACGUGUCUAGAAGGGCAUCGUAGGC [#01 K4 FMN B Exclusion] = 88.7
ACGCCGAGGACGGCCGCCACUAUGACGAAGUCCGUUCCUAUUACUGCGCGAGUGAUGUUCACGACUAGGACCGGGUCUAUGAGCU [theeternabot_exclusion_KL_Trp_B_28] = 631
GGCACUUUUGGUAGAAAACAUCUACCUCUAUAGGAUAUGCCGAAAGGCAGAAGGAUAGACCUACAGAGUGAUGUUCUGCGUGCCU = 283
AAGACCUGCAUCGAUACCAGCCCAGUGAUGUUGGGCUGCUCUCCAUGGGUGCCAGACACGGGCCCUUGGCAGCGAGGUAGGGCCC [Zazadilabi] = 103

Item GGGAACUCUUACGAUACCAGCCGGAGUGAUGUUCCGCGCUUGGACGUAGUAACCCGCACCGGCCCUUGGCAGCGUGGAUCUUAUA [Esbedi] with K4 kissing-loop RNA reporter - apparent KD of K4 kissing-loop reporter? 83.1

----------
Give apparent KD of MS2 coat protein for every item shown.
Test system: MS2 coat protein
EXPERIMENT NOTES: apparent KD of MS2 coat protein; designed switch direction (-1 OFF switch, 1 ON switch): 1; higher = weaker reporter binding
MEASUREMENT SETUP: input ligand: none
Give bare numbers, in nM.

Look over these answered cases.
AUUAAUAAUCGAGGAUAUCACGUCGAUUAGACGUGAGAAGGCGAUCAUAACAUGAGGAUCACCCAUGUAUUACAUGAAGUUAAU [SSNG1/4-B2] (Eterna round: R96, puzzle: Same State NG 1) = 28.2
GUAAUAAAGGAAGGAUAUGGGUAAACGGGAAUCCCAGAAGGUCCACAUGAGGAUCACCCAUGUGGUCCCGAAACCACGGGACCG [Enbive] (Eterna round: R96, puzzle: Same State NG 1) = 75

Turning now to a further sequence:
Query the reported apparent KD of MS2 coat protein for MS2 coat protein; item: AAUCCUGUCACAGGAUAUCCAAGGUAAACCCUCGGAGAAGGGUGAUAGUCUAACAAACACACACAUGAGGAUCACCCAUGUUAA [Usxeus] (Eterna round: R96, puzzle: Same State NG 1) 83.6

----------
For each record, write down the corresponding apparent KD of MS2 coat protein.
Tested on: MS2 coat protein
EXPERIMENT NOTES: apparent KD of MS2 coat protein; designed switch direction (-1 OFF switch, 1 ON switch): 1; higher = weaker reporter binding
MEASUREMENT SETUP: Eterna round: R95; input ligand: microRNA oligo, concentration not stated

UUUAGUUGCGGGCAGGAUAUGUAUUAAAAUACAUGAGGAUCACCCAUGUGAGGUCAUAAAGACCUACAGAAGGGCCAAUCGCGAC [Laonerce - 16] (puzzle: Same State 2) = 64.8 nM
UGUUAACAUGAGGAUCACCCAUGUCAAAUGAAUCGAGGAUAUGGGAAGGAAGAAGAGAAACUAGAAGGCGAAGUUG [Altered State 1-4 - Jieux - Same State 1] (puzzle: Same State 1) = 56.8 nM

Read the next record carefully.
Tell me the measured apparent KD of MS2 coat protein of GUAAAACAUGAGGAUCACCCAUGUAAUAUAAUGGGAGGAUAUCUGAUUUAAUUUAAUUUAAGAGAAGGCCUAAAUG [Mat - Same State 1 - Mod of Eli - D57] (puzzle: Same State 1) , please. 268 nM

----------
System: K4 kissing-loop RNA reporter;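 also: bound reporter read as fluorescence of individual clusters on recovered sequencing chips by microscopy, with normalized cluster intensities fitted with a binding model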
EXPERIMENT NOTES: apparent KD of K4 kissing-loop reporter; higher = weaker reporter binding
MEASUREMENT SETUP: Eterna round: R107; input ligand: none
MEASUREMENT NAME: apparent KD of K4 kissing-loop reporter

GGAGUUACCUGGGAUACCAGUCGGAGGCCCAGAGCUCGGAGUGAUGUUCUGGGAUGUUUCGGCCCUUGGCAGCUCUGGGUCUCCC [#2 Exclusion - Theophylline B Attempt #7 (HarryS)] = 1040 nM
AAGUGAUGUUGUAGUGAUGUUGUGAUGUUGCAGGAUAUAUAGUGAUGUAGAAGGGUAAGUACUCAUGUUGUUAGUAAGUGAUGUU [bttutmullin] = 81.7 nM
GGACACUAGGAAACUAGUGUCUCAACUGAAGGAGCGUGAAUAGUCACAGGUAGGUCGCAGUUUGUUAGUGAUGUUGACAUGAGUU [#16 K4 Arginine A Same State] = 514 nM
CGCGCGCGCUGAGAGGCGCGCGCGAAUGAUACCAGUAUAUAAGAAUACCCUUGGCAGCAUAAGAAAGAUAUAGUGAUGUUGUAUA [SSTheophA.D] = 43.1 nM
AAUAUGAAGCAGUGAUGUUGCUUAUGAGAAGGAGCGCACGAAAGUGCAGGUAGGUCGCUCAGCCAAGUGGACGAAAACGUCCACA [whbob_SS_Arginine_A_sa107] = 86.6 nM

Return reported apparent KD of K4 kissing-loop reporter values for all items listed beneath this line.
1. UUUCGGUUCUGAGGAUAUUCGGACAAAUAUAGUGAUGUUGUAUAAGGAGGAGGGUGUUGGCAGUGCGGAGAAGGCAGACCAGGAU [ExFMNB.W]
2. UGAUUUAACUGAAGGAGCGGCAAUUGAUAAGUAAAUAUAGUGAUGUUAUAUAAGAUAGAGAGCCAGGUAGGUCGCAGAGGUAUGA [ExArgB.L]
3. UUUUUCGCGUUUGAUACCAGCAGAGUUGUUCUUGUCUGGAACAUGAGUGAUGUUCAUGUCUGCCCUUGGCAGCAAACGGGAGAAG [KL-XTheo-B12]
4. ACAUGACGUGCGCCCGUCAUGAAACGUGCAAAGGAUAUUCCGUUUUGAAGAAGGUUGCGGUAGUGUAGUGAUGUUGCUCCGCCGU [theeternabot_sameState_KL_FMN_A_11]
5. UAAAAUAAAUAAUAGAGAUAAUUACUCGAAGGAGCGACGAAUUCGUCAGGUAGGUCGCGAGUGAUGUUCGCAAAUAUUAUCUCAU [AK3 Exc Arginine A]
6. ACCAUCAAAGAUGGCCAGGACUCCGCUGAUACCAGAGUGGAAACACUCCCUUGGCAGCAGGUGAGUGAUGUUCACAGUCCAUGGA [Omel KL Theo A SS B v4]
7. UCCUAGGCUCGAAAGAGCCUAGGAUAUACUCAGGAUAUCCGGAAACGGAGAAGGGAGUAACUAGUGAUGUUAGGGAUUCCCUAUU

1: 1170 nM; 2: 158 nM; 3: 110 nM; 4: 343 nM; 5: 295 nM; 6: 421 nM; 7: 109 nM
